Assignment: determine reported pKd for the given sequences.
Target: human serum albumin (HSA) (Homo sapiens) (UniProt P02768)
Conditions: Nap-dU at n (6) positions [Nap-dU at 21,28,30,33,36,37,40,49]; ELISA, SB18, 37 C
Numbers only, as −log10 of the molar value.

{"chain": "GTCTGCCTGACAACAACGAGTGCGAACTGTACTACTTGATAGAGACCCTCAGCCACACCACCAGCC [AP022]", "experimental-target": "human serum albumin (HSA) (Homo sapiens) (UniProt P02768)", "pKd": 7.78}

Continue with the sequence presented below.
What is its pKd for human serum albumin (HSA) (Homo sapiens) (UniProt P02768)? Entry: GTCTGCCTGACAACAACGAGTGCGAACTGTACTACTTGATAGAGACCCTC [AP024]
7.65

The reported measurements were obtained from patent US20230220399.
